biological target: KCNQ2/3 channels (Homo sapiens, UniProt O43525+O43526); construct: expressed in transfected cells; experiment: Fluorescence assay using a voltage sensitive dye (fluorimetry); assay type: cell-based; conditions: CHO-K1 cells expressing KCNQ2/3; IC50 where % efficacy is negative; read-out: Fluorimetry EC50/IC50
Sequence (O43526 whole entry): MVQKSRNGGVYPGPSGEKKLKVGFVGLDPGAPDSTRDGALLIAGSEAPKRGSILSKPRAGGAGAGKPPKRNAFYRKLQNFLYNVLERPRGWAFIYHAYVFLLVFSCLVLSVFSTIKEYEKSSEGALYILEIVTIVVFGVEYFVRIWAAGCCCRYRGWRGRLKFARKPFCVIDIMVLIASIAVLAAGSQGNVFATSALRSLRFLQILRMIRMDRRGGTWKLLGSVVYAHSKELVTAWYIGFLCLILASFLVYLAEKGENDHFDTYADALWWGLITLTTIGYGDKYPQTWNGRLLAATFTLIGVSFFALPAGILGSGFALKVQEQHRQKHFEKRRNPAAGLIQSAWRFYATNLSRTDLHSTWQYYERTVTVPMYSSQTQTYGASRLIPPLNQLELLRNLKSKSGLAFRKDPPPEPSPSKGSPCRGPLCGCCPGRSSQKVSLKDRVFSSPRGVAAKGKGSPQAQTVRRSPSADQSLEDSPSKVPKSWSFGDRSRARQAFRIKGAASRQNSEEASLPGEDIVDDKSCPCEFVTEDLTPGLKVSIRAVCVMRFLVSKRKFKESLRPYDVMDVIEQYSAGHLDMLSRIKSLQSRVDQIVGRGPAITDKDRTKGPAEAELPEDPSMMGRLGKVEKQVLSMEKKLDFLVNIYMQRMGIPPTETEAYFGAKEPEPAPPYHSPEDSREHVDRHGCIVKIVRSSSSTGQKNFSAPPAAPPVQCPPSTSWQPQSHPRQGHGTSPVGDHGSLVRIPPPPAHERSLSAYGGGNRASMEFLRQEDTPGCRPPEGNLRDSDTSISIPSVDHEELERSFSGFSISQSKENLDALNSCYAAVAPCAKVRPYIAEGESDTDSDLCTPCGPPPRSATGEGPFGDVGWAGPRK
Sequence (O43525 whole entry): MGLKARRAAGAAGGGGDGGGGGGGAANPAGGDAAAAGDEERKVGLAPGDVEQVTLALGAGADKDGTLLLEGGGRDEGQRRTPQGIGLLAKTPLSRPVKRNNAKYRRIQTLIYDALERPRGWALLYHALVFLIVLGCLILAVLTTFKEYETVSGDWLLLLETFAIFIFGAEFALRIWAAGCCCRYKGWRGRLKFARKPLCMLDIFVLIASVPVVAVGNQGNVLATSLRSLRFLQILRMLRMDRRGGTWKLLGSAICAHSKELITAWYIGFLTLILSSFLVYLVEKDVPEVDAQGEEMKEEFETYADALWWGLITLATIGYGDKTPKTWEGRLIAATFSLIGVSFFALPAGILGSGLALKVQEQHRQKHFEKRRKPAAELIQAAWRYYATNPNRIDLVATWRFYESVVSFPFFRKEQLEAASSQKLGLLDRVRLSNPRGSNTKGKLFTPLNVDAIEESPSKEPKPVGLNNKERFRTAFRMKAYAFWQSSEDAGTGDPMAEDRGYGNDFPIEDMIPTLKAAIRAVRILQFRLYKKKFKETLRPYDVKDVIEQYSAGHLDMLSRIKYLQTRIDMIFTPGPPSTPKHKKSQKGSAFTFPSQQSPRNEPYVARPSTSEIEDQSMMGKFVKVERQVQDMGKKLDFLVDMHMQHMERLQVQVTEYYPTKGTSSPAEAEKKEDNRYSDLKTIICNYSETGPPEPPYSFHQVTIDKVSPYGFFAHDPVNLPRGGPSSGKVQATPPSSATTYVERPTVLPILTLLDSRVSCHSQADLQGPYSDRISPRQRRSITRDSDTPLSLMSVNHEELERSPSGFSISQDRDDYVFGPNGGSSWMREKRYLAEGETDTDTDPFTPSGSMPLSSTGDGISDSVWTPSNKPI
quantity: log10(EC50) (log10 of the value in nM)
All values: log10 EC50 [nM].

Reference set (4 entries):
CCSc1nc(N2CCOCC2)cc(C)c1C(=O)NCCCC1(C)CC1 [Example 350]
1.90
COCc1nc(N2CCOCC2)cc(C)c1C(=O)NCc1cccc(F)c1 [Example 356]
3.80
Cc1cc(N2CCOCC2)nc(OCC2CC2)c1C(=O)NCc1ccc(Cl)cc1 [Example 271]
1.97
CSc1nc(N2CCOCC2)cc(C)c1C(=O)NCCCC(F)(F)F [Example 153]
2.83

Now consider a different compound.
Task item: Can you look up the measured log10(EC50) of CCOc1nc(N2CCOCC2)cc(C)c1C(=O)NCc1ccccc1-c1ccccc1 [Example 92] for me?
Reply: 2.11
